- Protocol Details: inhibitors of E-selectin induction by TNFa, primary screen, imaging, HUVEC, immunofluorescence, MLSMR starter and 10KST1 sets (AID 487);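 note: signal is fraction of cell area covered by stained E-selectin grains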
- Experimental Parameters: HUVEC TNFalpha-induced E-selectin immunofluorescence imaging, at 2 µM; hits give high values
Activity calls are given as the source filed them.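 Rule for the calls: active = visually confirmed hit in the image check and inhibition above 20%; inconclusive = visually confirmed hit but inhibition not above 20%; inactive = no visual hit in the image check.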

>  <Compound>
COc1ccc(N2CCN(C(=O)C(OC(C)=O)c3ccccc3)CC2)cc1 (stereo unspecified)

>  <inhibition>
-2.4% (inactive)

$$$$
>  <Compound>
O=C(CN1C2=NCCN2c2ccccc21)N1CCOCC1

>  <inhibition>
-7.9% (inactive)

$$$$
>  <Compound>
COc1cc(NC(=O)c2cc(CC(C)C)on2)c(OC)cc1Cl

>  <inhibition>
-15.3% (inactive)

$$$$
>  <Compound>
CCN1C(=O)c2cccc3c(NC(=O)c4ccc(S(=O)(=O)N(C)C)cc4)ccc1c23

>  <inhibition>
-23.9% (inactive)

$$$$
>  <Compound>
CCOC(=O)CSc1nnc2n(Cc3ccccc3)c(=O)c3c4c(sc3n12)CCC4

>  <inhibition>
49.8% (inactive)

$$$$
>  <Compound>
CCOC(=O)c1ccc(S(=O)(=O)NC2CCCCCCC2)n1C

>  <inhibition>
-42.2% (inactive)

$$$$
>  <Compound>
O=C(Nc1cnn(Cc2ccc(F)cc2)c1)c1cnccn1

>  <inhibition>
-94.9% (inactive)

$$$$
>  <Compound>
O=C(CSc1nnc2scc(-c3ccccc3)n12)Nc1nsc(-c2ccccc2)n1

>  <inhibition>
34.5% (inactive)

$$$$
>  <Compound>
COc1cccc(-c2nc(CSCC(=O)N3CCc4ccccc43)c(C)o2)c1

>  <inhibition>
22.5% (inactive)

$$$$
>  <Compound>
CCOC(=O)C(C)c1nc2ccccc2[nH]c1=O (stereo unspecified)

>  <inhibition>
-30.5% (inactive)

$$$$
>  <Compound>
CCn1c(NC(=O)c2cccc(Cn3cc(Cl)cn3)c2)nc2ccccc21

>  <inhibition>
-45.1% (inactive)

$$$$
>  <Compound>
O=S1(=O)C=C(Oc2ccc(F)cc2)c2ccccc21

>  <inhibition>
-0.9% (inactive)

$$$$
>  <Compound>
CCC(C(=O)Nc1nccs1)(C(F)(F)F)C(F)(F)F

>  <inhibition>
-106% (inactive)

$$$$
>  <Compound>
CCN(CC)c1ccc(NC(=O)c2nc3nc(C)cc(C(F)F)n3n2)cc1

>  <inhibition>
-10.1% (inactive)

$$$$
>  <Compound>
Cc1ccc(C(=O)NCC(C)(C)O)cc1

>  <inhibition>
-1.3% (inactive)

$$$$
>  <Compound>
CCN1C(=O)C2(C(C#N)=C(N)Oc3n[nH]c(C(C)C)c32)c2ccccc21 (stereo unspecified)

>  <inhibition>
2.2% (inactive)

$$$$
>  <Compound>
Cc1nn(C(=O)c2ccoc2C)c(N)c1-c1ccccc1

>  <inhibition>
-25.3% (inactive)

$$$$
>  <Compound>
Cc1cc(=O)n2nc(N3CCCC(C(=O)N4CCc5ccccc54)C3)sc2n1 (stereo unspecified)

>  <inhibition>
-54.6% (inactive)

$$$$
>  <Compound>
N#Cc1cc2c(nc1SCC(=O)N1CCCCC1)CCCC2

>  <inhibition>
-46% (inactive)

$$$$
>  <Compound>
O=C(NCc1cccnc1)NC(C(F)(F)F)C(F)(F)F

>  <inhibition>
-24.5% (inactive)

$$$$
>  <Compound>
O=C(NC1CCCc2ccccc21)c1ccc(CNc2c(N3CCOCC3)c(=O)c2=O)cc1 (stereo unspecified)

>  <inhibition>
-52.7% (inactive)

$$$$
>  <Compound>
COc1ccccc1CN1CCCC(C(=O)N(C)Cc2ccccc2)C1 (stereo unspecified)

>  <inhibition>
-218% (inactive)

$$$$
>  <Compound>
O=c1cc(O)nc2n1CCCS2

>  <inhibition>
56.2% (inactive)

$$$$
>  <Compound>
COc1ccc(C(=O)Oc2c(CN3CCOCC3)cc(Cl)c3cccnc23)cc1OC

>  <inhibition>
-53.1% (inactive)

$$$$
>  <Compound>
CCCCOc1cc(=O)[nH]c(=O)[nH]1

>  <inhibition>
5.6% (inactive)

$$$$
>  <Compound>
CC(NC(=O)Nc1cccnc1)(C(F)(F)F)C(F)(F)F

>  <inhibition>
-177% (inactive)

$$$$
>  <Compound>
CC(=O)C1=C(O)C(=O)N(c2ccc(S(N)(=O)=O)cc2)C1c1ccccc1F (stereo unspecified)

>  <inhibition>
14.5% (inactive)

$$$$
>  <Compound>
CC(C)C(NC(=O)c1ccco1)C(=O)NCC(c1ccco1)N1CCCCC1 (stereo unspecified)

>  <inhibition>
0% (inactive)

$$$$
>  <Compound>
Cc1ccc(-n2nnnc2SCC(=O)c2cc(C)n(-c3cc(C)on3)c2C)cc1

>  <inhibition>
-36.4% (inactive)

$$$$
>  <Compound>
CCN(CC)c1nc2nonc2nc1N(CC)CC

>  <inhibition>
-12.1% (inactive)

$$$$
>  <Compound>
CCOCCCNC(=O)C1CC(=O)N(C2CCCC2)C1 (stereo unspecified)

>  <inhibition>
11.6% (inactive)

$$$$
>  <Compound>
CC(=O)Oc1ccc2c(C)cc(=O)[nH]c2c1

>  <inhibition>
-13% (inactive)

$$$$
>  <Compound>
Cc1cc(NS(=O)(=O)c2ccc(NC(=O)COc3ccccc3C(C)C)cc2)no1

>  <inhibition>
-2.6% (inactive)

$$$$
>  <Compound>
CCOc1ccc(Cn2nnc(C(=O)Nc3cc(C)cc(C)c3)c2N)cc1

>  <inhibition>
-46.9% (inactive)

$$$$
>  <Compound>
O=C(O)c1cc(-c2ccccc2Cl)n[nH]1

>  <inhibition>
-51% (inactive)

$$$$
>  <Compound>
CCOC(=O)c1ccc(Oc2nc(SC)nc(N(C)C)n2)cc1

>  <inhibition>
-308% (inactive)

$$$$
>  <Compound>
O=C(NCC(F)(F)F)Nc1nnc(C(F)(F)F)s1

>  <inhibition>
-80.8% (inactive)

$$$$
>  <Compound>
CCOC(=O)C1=C(N)n2c(s/c(=C\c3ccco3)c2=O)=C(C(=O)OC(C)C)C1c1ccco1 (stereo unspecified)

>  <inhibition>
-126% (inactive)

$$$$
>  <Compound>
O=C(O)c1ccnc(C(=O)O)c1

>  <inhibition>
-82% (inactive)

$$$$
>  <Compound>
CCN(CC)CCN1C(=O)c2ccccc2NC1c1cc(OC)c(OC)c(OC)c1 (stereo unspecified)

>  <inhibition>
57.5% (inactive)

$$$$
>  <Compound>
CCCCCn1c(CN2CCN(C(=O)c3ccco3)CC2)nc2c1c(=O)n(C)c(=O)n2C

>  <inhibition>
-13.1% (inactive)

$$$$
>  <Compound>
C=CCc1cccc(/C=N/n2cnnc2)c1O

>  <inhibition>
-121% (inactive)

$$$$
>  <Compound>
Cc1ccc(S(=O)(=O)/C(C#N)=C/c2c(N3CCN(C)CC3)nc3ccccn3c2=O)cc1

>  <inhibition>
-211% (inactive)

$$$$
>  <Compound>
O=C(c1ccc(Br)o1)N1CCN(c2ccc3nnc(-c4ccccc4)n3n2)CC1

>  <inhibition>
-91.9% (inactive)

$$$$
>  <Compound>
Clc1ccc(-n2nnnc2Sc2ncnc3sccc23)cc1

>  <inhibition>
-12.2% (inactive)

$$$$
>  <Compound>
Cn1c(=O)c2nc(Cl)n(Cc3ccc(Cl)cc3Cl)c2n(C)c1=O

>  <inhibition>
-7.8% (inactive)

$$$$
